Overview of reported melting point across a group of compounds:

>  <Compound>
CCOC(=O)c1c(NCC(=O)OCCCC(=O)c2ccccc2)c2c(Cl)cc(Cl)cc2n1C(=O)OC(C)(C)C

>  <Reported Value>
129 to 130 °C

$$$$

melting point for COC(=O)[C@@H]1CCN1S(=O)(=O)c1ccc(Cl)c(CBr)c1Cl is 150 °C

melting point for Cn1c(=Nc2nc(C(Cl)(Cl)Cl)nc(C(Cl)(Cl)Cl)n2)sc2ccccc21 is 251 to 253 °C

melting point for CC(c1cccc(Cl)c1)(n1ccnc1)C1(O)C2CC3CC(C2)CC1C3 (centres undefined) is 121 °C

melting point for O=C1[C@H]2CCC[C@H]2N(C(=O)CCn2ccnc2)c2ccccc2N1Cc1ccccc1 (relative stereo) is 150 to 152 °C

melting point for O=C(Nc1cccc(-c2ccnc3c(C(=O)c4cccs4)cnn23)c1)c1ccc(-n2cccc2)cc1 is 224 to 226 °C

melting point for Cc1ccc(-c2nc3ccc(N(C)C)cn3c2CNC(=O)CC(C)C)cc1 is 173 to 175 °C

melting point for C#Cc1c(C#N)nn(-c2c(Cl)cc(C(F)(F)F)cc2Cl)c1N is 215 to 216 °C

melting point for O=C(O)c1cn(C2COC2)c2c(F)c(F)c(F)c(O)c2c1=O is 242 to 244 °C

---

Endpoint: melting point (°C)

>  <Compound>
N#Cc1cc([N+](=O)[O-])ccc1N1CCC(NCCO)CC1

>  <Measurement Unit>
°C

>  <melting point>
115

$$$$
>  <Compound>
O=C(O)CCC(=O)NCc1ccccc1

>  <Measurement Unit>
°C

>  <melting point>
138

$$$$
>  <Compound>
COc1ccc2cc(-c3ccc(Cl)c(-n4nc(C)nc4C)c3)c(=O)oc2c1

>  <Measurement Unit>
°C

>  <melting point>
210

$$$$

I = CC(C)(C)OC(=O)Nc1ccc(-c2cc(F)ccc2F)cc1[N+](=O)[O-]
II = CCOc1ccc(C(=O)N(C)Cc2cccc(-c3ccc(CC4SC(=O)NC4=O)cc3)c2)cc1 (stereo not given)
Kindly identify which of I and II has the larger recorded melting point value. To answer, give the label that identifies your chosen option. II
(II: 182 °C, I: 104 °C)

---

Overview of reported melting point across a group of compounds:

Example compounds with recorded melting point:
>  <Compound>
CC(C)(C=CBr)C(=O)Nc1ccc(Cl)cc1

>  <melting point>
134 to 135 °C

$$$$
>  <Compound>
CCCC(O)(CCC)c1ccc(Cl)c2nc3n(c12)CCCN3c1ccc(Cl)cc1C(F)(F)F

>  <melting point>
200 to 202 °C

$$$$
>  <Compound>
O=C(O)c1cccc(-c2ccc(OC[C@H](O)CCc3cccnc3)cc2)c1

>  <melting point>
165 to 168 °C

$$$$

melting point for O=C(CCCCCCNC(=O)c1cn2c3c(cccc13)CCC2)NO is 205 to 206 °C

melting point for CN(C)C=C(C#N)C(=O)c1c[nH]c2ccccc12 is 187 to 188 °C

---

Overview of reported melting point across a group of compounds:

Example compounds with recorded melting point:
>  <Compound>
CC(C)n1nc(-c2c(-c3ccccc3)nn3ccc(OCC(=O)N4CCN(C(=O)OC(C)(C)C)CC4)cc23)ccc1=O

>  <Reported Value>
140 to 144 °C

$$$$
>  <Compound>
O=C(COCc1ccccc1)NC(C(=O)Nc1n[nH]c(=S)s1)c1ccccc1 (stereo not given)

>  <Reported Value>
96 to 100 °C

$$$$
>  <Compound>
O=C(CBr)C(O)(c1ccccc1)C1CCC1 (stereo not given)

>  <Reported Value>
79 to 80 °C

$$$$
>  <Compound>
Brc1c[nH]c2ccc(Nc3ncnc4cc(-c5ccccc5)sc34)cc12

>  <Reported Value>
201 to 203 °C

$$$$
>  <Compound>
CC1c2cc(Cl)ccc2-c2ccc(Cl)cc21

>  <Reported Value>
110 to 112 °C

$$$$

melting point for CC(C)(Cc1cccc(Oc2cccc(CC(C)(C)C(=O)O)c2)c1)C(=O)O is 84 to 85 °C

---

Endpoint: melting point

Example molecules with recorded melting point:
>  <Molecule>
COc1cccc(/C(=C/C=C/C(=O)O)c2cccc(F)c2)c1

>  <Endpoint>
melting point

>  <Reported Value>
151 to 153 °C

$$$$
>  <Molecule>
CCOC(=O)c1csnc1-c1ccc(C(F)(F)F)cc1

>  <Endpoint>
melting point

>  <Reported Value>
63 to 64 °C

$$$$
>  <Molecule>
CC(c1ccccc1)N1CC(C(C(N)=O)(c2ccccc2)c2ccccc2)C1 (stereo not given)

>  <Endpoint>
melting point

>  <Reported Value>
153 to 154 °C

$$$$
>  <Molecule>
CC(Cl)(Cl)c1nc2c(C(F)(F)F)cccc2c(=O)o1

>  <Endpoint>
melting point

>  <Reported Value>
120 °C

$$$$
>  <Molecule>
CC(C)NCC(O)c1ccccc1 (stereo not given)

>  <Endpoint>
melting point

>  <Reported Value>
90 °C

$$$$

melting point for O=C1C2CC(c3ccc([N+](=O)[O-])cc3)(C2)C(=O)N1CC1CCCCC1 is 191 to 194 °C

melting point for COC=C1C(=O)NC(=O)c2ccccc21 is 260 to 261 °C

melting point for COc1cc(Nc2nc3cccc(-c4ccc(CN)cc4)c3o2)cc(OC)c1OC is 208 to 211 °C

melting point for Cc1nc2cccc(OCC(C)(C)NC(=O)c3cccc(O)c3)c2c(N)c1C(=O)O is 195 to 198 °C

melting point for Cc1ccc(S(=O)(=O)NCCc2ccc(C(=O)CBr)cc2)cc1 is 133 to 136 °C

---

Overview of reported melting point across a group of compounds:

Example compounds with recorded melting point:
>  <Compound>
CCCCN(C)c1nccc2ccc(C(=O)N[C@@H](Cc3cc(F)cc(F)c3)[C@H](O)CNCc3cccc(CC)c3)cc12

>  <melting point>
120 to 121 °C

$$$$
>  <Compound>
NC(=O)c1[nH]c2cccnc2c1Sc1ccccc1

>  <melting point>
251 °C

$$$$
>  <Compound>
NCC(O)CN1CCN(C(c2ccc(F)cc2)c2ccc(F)cc2)CC1 (stereo unspecified)

>  <melting point>
45 to 47 °C

$$$$
>  <Compound>
CC(=O)SCC(Cc1ccccc1)C(=O)NC(CCCNC(=N)N)C(=O)O (stereo unspecified)

>  <melting point>
253 to 295 °C

$$$$
>  <Compound>
Cc1oc(-c2ccccc2)nc1COc1ccccc1COc1ccccc1CC(=O)O

>  <melting point>
145 to 146 °C

$$$$

melting point for O=S1(=O)N=CN(C2CC2)c2ccc(Br)cc21 is 242 to 244 °C

melting point for CCCCCCCCOc1ccc(C(=O)Nc2cccc(Cl)c2Cl)cc1 is 104 to 106 °C

melting point for CCOC(=O)c1cn(CC)c2nc(C)ccc2c1=O is 122 to 123 °C

melting point for Cc1cncn1-c1cc(N)cc(C(F)(F)F)c1 is 131 to 133 °C

melting point for Brc1cncc(-c2ccccc2Oc2ccccc2)c1 is 109 °C

melting point for OC1(c2ccc(-c3ccccc3)nc2)CN2CCC1CC2 (stereo unspecified) is 214 °C

melting point for COc1ccc(C(=O)Nc2ccc3ccc(Oc4ccccc4Br)nc3n2)cc1 is 183 °C

melting point for O=S1(=O)c2cccc3cccc(c23)N1CCCCN1CCN(c2ccc(O)cc2)CC1 is 195 °C

melting point for CCCOc1ccc(Cl)c2c(=O)c3ccccc3sc12 is 102 to 103 °C

melting point for COC(=O)c1cccc2c1C(Cc1ccnc(F)c1)(Cc1ccnc(F)c1)c1ccccc1-2 is 126 to 127 °C

---

Overview of reported melting point across a group of compounds:

Example compounds with recorded melting point:
>  <Compound>
COC(=O)c1ccc(Br)c(S(C)(=O)=O)c1

>  <melting point>
148 to 149 °C

$$$$
>  <Compound>
Cc1nnc2n1-c1ccc(C#CCC3C(=O)Nc4ccccc43)cc1C(c1ccccc1Cl)=NC2 (centres undefined)

>  <melting point>
141 to 143 °C

$$$$
>  <Compound>
COC(=O)C1N=C(c2ccccc2F)c2cc(Cl)ccc2-n2c1cnc2C (centres undefined)

>  <melting point>
203 to 205 °C

$$$$
>  <Compound>
Cc1cc(I)ccc1-c1cccc(C(N)=O)c1

>  <melting point>
138 to 141 °C

$$$$
>  <Compound>
CC12CCC3C(CC=C4NC(=O)CCC43C)C1CC=C2I (centres undefined)

>  <melting point>
227 to 230 °C

$$$$

melting point for COc1cc(NC2CCCCC2)c2ccccc2c1OC(C)=O is 134 to 136 °C

melting point for Cc1ccc(-c2[nH]c(C)nc2C(=O)Nc2nccs2)cc1 is 275 to 276 °C

melting point for COC(=O)c1ccc(C(=O)NC(C(=O)N2CCCC2C(=O)NC(C(C)C)C(O)C(F)(F)F)C(C)C)cc1 (mixture of isomers) is 64 to 67 °C
